Catalogue of log10(TGI) readings, one per entry.
- System: HOP-92 NSCLC
- assay-explanation: NCI tumour cell line growth inhibition, 48 h
metric: log10(TGI) (log10 of the value in µM)

INSERT INTO measurements (molecule, recorded_value) VALUES
  ('CC(C)=CC1C[C@H](C2CC=C3C2(C)CCC2[C@@]3(C)C(=O)CC3[C@]2(C)C=CC(=O)[C@]3(C)CO)CO1 (some centres undefined)', 1.62),
  ('CCOC(=O)N1CCN(/[N+]([O-])=N/Oc2ccc([N+](=O)[O-])cc2[N+](=O)[O-])CC1', 0.57),
  ('O=C1C(N2CCN(c3ccccn3)CC2)=C(Cl)C(=O)c2ncccc21', 0.47),
  ('COc1cc(Br)c(C=Nc2cccc3cc(OC)c(OC)cc23)cc1OC', 1.99),
  ('O=C(NNC(=S)Nc1ccccc1)c1cc(-c2ccccc2)nc2ccccc12', 1.58),
  ('CCN(CC)CCNc1ccc2nnn3c4ccc(C)cc4c(=O)c1c23', 1.32),
  ('COc1ccc(-c2nn(-c3cccc(Cl)c3)cc2-c2cc(-c3cccs3)[nH]c(=S)n2)cc1', 1.03),
  ('NS(=O)(=O)c1ccc(-n2nc(-c3ccc(Cl)cc3)cc2-c2cc(O)ccc2O)cc1', 1.59),
  ('CN(Cc1ccccc1)C(=NC#N)N(Cc1ccccc1)Cc1ccccc1', 1.74),
  ('N#C[C@@H](c1nc2ccccc2s1)c1ncccc1[N+](=O)[O-]', 0.84),
  ('O=C1C(Cl)=C(Nc2cccc(Cl)c2)C(=O)N1Cc1ccc(Cl)cc1', 0.70),
  ('CC(=O)C1(Cc2cccc3ccccc23)S(=O)(=O)OCCOS1(=O)=O', 1.68),
  ('Clc1nc(Cl)c2ncn(CC3(Cn4cnc5c(Cl)nc(Cl)nc54)COC3)c2n1', -0.06),
  ('C[C@@]1(C(=O)O)CCC[C@]2(C)C1CC[C@@]13CC(=O)[C@@](CO)(CC[C@]12O)C3 (some centres undefined)', 1.99),
  ('CCN(Cc1ccc(Cl)cc1)c1ccc(CO)c(Cl)c1', 1.05),
  ('CCN(CC)c1c(C(=O)/C=C/c2ccc(Cl)cc2)c(-c2ccccc2)nn(C)c1=O', 0.64),
  ('CCOC(=O)c1c(C)nc2c(c1N)CC(=O)N2Cc1ccc(OC)cc1', 0.81),
  ('CN(CCNC(=O)c1nn(-c2ccccc2)c2c1Cc1ccccc1-2)CCNC(=O)c1nn(-c2ccccc2)c2c1Cc1ccccc1-2', 0.48);

###

Catalogue of TGI readings, one per entry.
- Test system: LOX IMVI melanoma
- assay-explanation: NCI tumour cell line growth inhibition, 48 h
metric: TGI (µM)

INSERT INTO results (molecule, target_of_assay, cmp, recorded_value) VALUES
  ('CN(Cc1ccccc1)C(=NC#N)N(Cc1ccccc1)Cc1ccccc1', 'LOX IMVI melanoma', '=', 35),
  ('COC(=O)CC1C[C@H](C#N)N(C(=O)c2ccccc2)C[C@@H]1CC[N+](=O)[O-] (stereo partly drawn)', 'LOX IMVI melanoma', '>', 100),
  ('O=C(CCCCCCNC(=O)c1cnc(N(c2ccccc2)c2ccccc2)nc1)NO', 'LOX IMVI melanoma', '=', 11.4),
  ('O=C1NCC(CSc2nc3cc(C4CCCc5c4[nH]c4ccccc54)ccc3o2)N1 (stereo not drawn)', 'LOX IMVI melanoma', '>', 100),
  ('C=CCN=c1sc2c(n1NC(=O)c1cc3ccc1CCc1ccc(cc1)CC3)C(=O)c1ccccc1C2=O', 'LOX IMVI melanoma', '=', 2.1),
  ('CN(C)CCCNC(=O)c1c(O)c2ccccc2[nH]c1=O', 'LOX IMVI melanoma', '>', 100),
  ('N.N.N.N.N.NC(=O)c1nn[n-]n1.[Cl-].[Co+3]', 'LOX IMVI melanoma', '>', 100),
  ('CC1OC(OC2C(O)COC(OC3C(C)OC(OC4C(OC(=O)[C@]56CCC(C)(C)C[C@@H]5C5=CCC7[C@@]8(C)C[C@H](O)[C@H](OC9OC(CO)C(O)C(OC%10OC(CO)C(O)C(O)C%10O)C9O)[C@@](C)(CO)[C@@H]8CC[C@@]7(C)[C@]5(C)CC6)OCC(O)C4O)C(O)C3OC3OCC(O)(CO)C3O)C2O)C(O)C(O)C1O (stereo partly drawn)', 'LOX IMVI melanoma', '=', 17.8);

###

- Tested on: SF-539 CNS
- assay-explanation: NCI tumour cell line growth inhibition, 48 h
Where a SMILES comes first, the peptide text is derived from it. [ ]: non-standard residue; d: D form. pGlu = O=C1CC[CH](C(=O)O)N1
metric: TGI

INSERT INTO results (molecule, recorded_value) VALUES
  ('Cc1cc(C)n(-c2nsc3ccccc23)n1', '> 100 µM'),
  ('CC12O[C@]3([C@H](C(=O)N4CCOC43C)[C@H]1Cl)[C@H]1O[C@H]12 (some centres undefined)', '> 100 µM'),
  ('CN1CC[C@]23c4c5ccc(O)c4O[C@H]2C(O)CC[C@@]3(O)[C@H]1C5 (some centres undefined)', '> 100 µM'),
  ('CCNC(=O)C1CCCN1C(=O)C(CCCN=C(N)N)NC(=O)C(CC(C)C)NC(=O)C(CC(C)C)NC(=O)C(Cc1ccc(O)cc1)NC(=O)C(CO)NC(=O)C(Cc1c[nH]c2ccccc12)NC(=O)C(Cc1cnc[nH]1)NC(=O)C1CCC(=O)N1 (centres undefined) ([pGlu]HWSYLLRP-NHEt; configuration not given here)', '> 100 µM'),
  ('Cc1cc(-c2cccc3ccccc23)c(C#N)c(=S)n1C1OC(CO)C(O)C(O)C1O (centres undefined)', '> 100 µM'),
  ('CSC(=Nc1nnc(-c2ccc([N+](=O)[O-])cc2)s1)SC', '44.5 µM'),
  ('COC(=O)c1ccc(-c2nc3cc(Cl)c(Cl)cc3nc2C#N)cc1', '> 100 µM'),
  ('Oc1c(-c2nnc(-c3ccccc3Cl)o2)sc2nnc(-c3ccccc3)c(-c3ccccc3)c12', '70.4 µM'),
  ('COc1cc(C(=O)/C=C/c2ccc(OCC#N)cc2)cc(OC)c1OC', '33.2 µM'),
  ('O=C1C(Cl)=C(Nc2cccc(Cl)c2)C(=O)N1Cc1ccc(Cl)cc1', '2.37 µM'),
  ('BrC1=CCC23CC=C(Br)[C@H]4CC2(COC3)C[C@@H]1O4 (some centres undefined)', '> 100 µM'),
  ('[N-]=[N+]=NC(CCl)c1cn([C@H]2C[C@H](O)[C@@H](CO)O2)c(=O)[nH]c1=O (some centres undefined)', '> 100 µM'),
  ('CCN(CC)CCNc1ccc2nnn3c4ccc(C)cc4c(=O)c1c23', '18.7 µM'),
  ('O=C1CC(O)CC(=O)C1=C(O)CCCCCCCCCCc1ccccc1 (centres undefined)', '> 100 µM'),
  ('O=C(O)c1n[nH][nH]c1=S', '> 100 µM'),
  ('CN(C)CCCNC(=O)c1c(O)c2ccccc2[nH]c1=O', '> 100 µM'),
  ('CC(C)=CC1C[C@H](C2CC=C3C2(C)CCC2[C@@]3(C)C(=O)CC3[C@]2(C)C=CC(=O)[C@]3(C)CO)CO1 (some centres undefined)', '11.9 µM'),
  ('Cc1ccc(Cc2n[nH]c(=O)n2Nc2ccccc2)cc1', '> 100 µM'),
  ('C[C@@]1(O)C[C@@H](N2C(=O)O[C@@H](c3ccccc3)[C@H]2c2ccccc2)[C@@H]1COCc1ccccc1', '38.4 µM');

###

- System: OVCAR-5 ovarian
- assay-explanation: NCI tumour cell line growth inhibition, 48 h
Catalogue of TGI readings, one per entry.
metric: TGI

INSERT INTO results (compound, metric, recorded_value) VALUES
  ('CC(=O)N1C(OC(C)C)CC(C)N1c1ccccc1 (stereo not drawn)', 'TGI', '> 10 µM'),
  ('CN1Cc2cc3cc4c(cc3nc2N(C)C1)OCCO4', 'TGI', '> 100 µM'),
  ('CC(=O)OC/C=C/[C@H](O[Si](C)(C)C(C)(C)C)[C@@H](O)/C=C/COC(C)=O', 'TGI', '> 100 µM'),
  ('CSc1nc(NC2OCC(O)C(O)C2O)c(N)c(=O)[nH]1 (stereo not drawn)', 'TGI', '> 100 µM'),
  ('C[C@@]1(O)C[C@@H](N2C(=O)O[C@@H](c3ccccc3)[C@H]2c2ccccc2)[C@@H]1COCc1ccccc1', 'TGI', '78.2 µM'),
  ('CC1OC(OC2C(O)COC(OC3C(C)OC(OC4C(OC(=O)[C@]56CCC(C)(C)C[C@@H]5C5=CCC7[C@@]8(C)C[C@H](O)[C@H](OC9OC(CO)C(O)C(OC%10OC(CO)C(O)C(O)C%10O)C9O)[C@@](C)(CO)[C@@H]8CC[C@@]7(C)[C@]5(C)CC6)OCC(O)C4O)C(O)C3OC3OCC(O)(CO)C3O)C2O)C(O)C(O)C1O (stereo partly drawn)', 'TGI', '17.4 µM'),
  ('O=[N+]([O-])c1ccc(C[P+](c2ccccc2)(c2ccccc2)c2ccccc2)cc1', 'TGI', '> 100 µM'),
  ('CC(=O)c1ccc2c(c1)c1c(C)c3c[n+](C)ccc3c(C)c1n2C', 'TGI', '> 100 µM');
